target or test system: T1, human CD16a V176 variant, biotinylated (human, UniProt P08637 17-208, N-terminally biotinylated in-house)
T1 construct: supplier is told for the AlphaScreen assay only; also called V Variant; FcγRIIIA V variant
T1 sequence (P08637 other isoform, or with tags, fused parts or gaps mutant limits assumed): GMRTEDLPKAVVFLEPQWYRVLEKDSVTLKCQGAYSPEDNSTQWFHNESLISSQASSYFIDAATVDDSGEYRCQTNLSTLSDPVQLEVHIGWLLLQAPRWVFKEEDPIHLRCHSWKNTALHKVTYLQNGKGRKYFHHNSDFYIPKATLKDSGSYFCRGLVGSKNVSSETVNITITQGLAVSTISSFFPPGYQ
assay details: SPR
Numbered stars: 1 amine (or outer) side, 2 acyl side, 3 side chain; on linkers, the order of the positions; unused ones are H or OH. Bridge positions count the residues as written; N and C are the ends. Square brackets hold non-standard residues; d marks the D form. Ends that are not written are not given here. * marks the point of attachment. TBMT = 2,4,6-tris(bromomethyl)-s-triazine, C(c1nc(C[*:2])nc(C[*:3])n1)[*:1]; Pent4ynoyl = C#CCCC(=O)*
// classify: if (Kd < 3000 nM) fulfilled else not fulfilled

- binder: "ACVGLEELGPCSDLCAK(Pent4ynoyl)-NH2 (linker 2-11-15 via TBMT (inferred), scaffold TBMT) [BCY13886]"
  discrete label: "not fulfilled"
- binder: "ACRWSVEDPCGAWCAK(Pent4ynoyl)-NH2 (linker 2-10-14 via TBMT (inferred), scaffold TBMT) [BCY13883]"
  discrete label: "fulfilled"
- binder: "ACVGXEELGPCSDLCA (CiVG[tBuAla]EELGPCiiSDLCiii, scaffold TBMT) [BCY16501]"
  discrete label: "not fulfilled"
- binder: "ACRWSVEDPC[dA]AWCA-NH2 (linker 2-10-14 via TBMT (inferred), scaffold TBMT) [BCY14956]"
  discrete label: "fulfilled"
- binder: "ACVGLLELGPCSDLCAK(Pent4ynoyl)-NH2 (linker 2-11-15 via TBMT (inferred), scaffold TBMT) [BCY16165]"
  discrete label: "not fulfilled"
- binder: "ACPPTVYCHPLDCAK (C-terminal Lys(PYA), scaffold TATA) [BCY15685]"
  discrete label: "fulfilled"
